Form field: inhibition at 1 µM (one value per entry).
# experimental-system: wild-type human cardiac sodium channel, hNav1.5 (late sodium current) in HEK293 cells (Homo sapiens, UniProt Q14524)
# Sequence (Q14524 whole entry): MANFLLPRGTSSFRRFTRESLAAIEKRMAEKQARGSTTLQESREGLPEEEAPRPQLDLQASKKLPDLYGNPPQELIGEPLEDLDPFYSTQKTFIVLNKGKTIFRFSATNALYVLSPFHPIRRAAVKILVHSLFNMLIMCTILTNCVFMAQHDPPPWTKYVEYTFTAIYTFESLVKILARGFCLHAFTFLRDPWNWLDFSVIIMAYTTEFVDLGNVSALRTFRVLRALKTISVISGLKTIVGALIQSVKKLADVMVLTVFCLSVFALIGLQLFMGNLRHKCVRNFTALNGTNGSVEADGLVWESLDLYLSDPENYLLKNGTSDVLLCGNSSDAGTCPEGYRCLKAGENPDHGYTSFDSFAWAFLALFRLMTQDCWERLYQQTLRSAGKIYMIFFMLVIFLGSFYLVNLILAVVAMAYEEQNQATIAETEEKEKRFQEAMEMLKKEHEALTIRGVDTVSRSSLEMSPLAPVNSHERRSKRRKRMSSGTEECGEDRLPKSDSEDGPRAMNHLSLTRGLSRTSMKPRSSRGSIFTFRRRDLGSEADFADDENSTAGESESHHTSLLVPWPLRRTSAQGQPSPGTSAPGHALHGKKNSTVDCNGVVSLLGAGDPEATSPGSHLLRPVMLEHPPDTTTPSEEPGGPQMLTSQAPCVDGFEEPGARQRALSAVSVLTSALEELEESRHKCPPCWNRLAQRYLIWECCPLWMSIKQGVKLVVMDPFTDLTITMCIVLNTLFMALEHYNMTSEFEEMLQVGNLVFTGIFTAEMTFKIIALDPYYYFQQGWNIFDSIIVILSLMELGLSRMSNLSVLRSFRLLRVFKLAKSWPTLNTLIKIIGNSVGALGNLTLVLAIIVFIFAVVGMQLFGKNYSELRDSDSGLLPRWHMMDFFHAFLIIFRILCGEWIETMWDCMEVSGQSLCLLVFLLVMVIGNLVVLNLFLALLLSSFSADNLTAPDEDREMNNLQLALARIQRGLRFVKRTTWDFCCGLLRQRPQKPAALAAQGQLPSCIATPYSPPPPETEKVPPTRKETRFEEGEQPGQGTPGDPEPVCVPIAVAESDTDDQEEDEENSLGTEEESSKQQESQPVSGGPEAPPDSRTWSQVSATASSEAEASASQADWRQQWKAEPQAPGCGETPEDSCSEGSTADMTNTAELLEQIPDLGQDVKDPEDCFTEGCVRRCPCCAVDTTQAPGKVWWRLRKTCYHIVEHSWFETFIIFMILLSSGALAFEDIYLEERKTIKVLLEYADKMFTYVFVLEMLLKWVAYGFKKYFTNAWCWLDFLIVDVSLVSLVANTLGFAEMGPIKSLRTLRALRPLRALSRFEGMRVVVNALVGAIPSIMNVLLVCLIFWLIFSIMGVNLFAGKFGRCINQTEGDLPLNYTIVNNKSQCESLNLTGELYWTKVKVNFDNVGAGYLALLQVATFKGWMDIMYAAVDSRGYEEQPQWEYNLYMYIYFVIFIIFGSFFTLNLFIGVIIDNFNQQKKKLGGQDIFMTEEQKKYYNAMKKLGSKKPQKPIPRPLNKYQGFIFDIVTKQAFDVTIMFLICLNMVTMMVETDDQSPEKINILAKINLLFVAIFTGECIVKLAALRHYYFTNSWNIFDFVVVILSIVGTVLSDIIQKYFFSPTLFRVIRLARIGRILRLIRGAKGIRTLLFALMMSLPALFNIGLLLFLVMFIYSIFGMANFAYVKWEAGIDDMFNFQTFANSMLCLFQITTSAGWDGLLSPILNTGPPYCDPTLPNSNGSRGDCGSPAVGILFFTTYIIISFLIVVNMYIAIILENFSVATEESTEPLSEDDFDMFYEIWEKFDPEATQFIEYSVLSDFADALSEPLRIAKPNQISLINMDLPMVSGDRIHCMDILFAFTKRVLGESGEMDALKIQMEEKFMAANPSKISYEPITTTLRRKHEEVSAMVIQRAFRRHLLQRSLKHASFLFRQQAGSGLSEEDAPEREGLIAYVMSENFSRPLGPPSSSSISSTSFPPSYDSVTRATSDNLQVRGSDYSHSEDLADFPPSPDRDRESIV
# test-description: Late INa screening assay (automated whole-cell patch clamp, PatchXpress)
# Assay type: cell-based
# study-conditions: HEK293, compound at 1 μM; late INa generated with 10 μM Tefluthrin (or 50 nM ATX II); HEK293 hNav1.5; read-out: Late INa 1 μM (percent block of late INa)
Write it as a number; the unit % goes unstated.

Cc1noc(-c2ccccc2OCCn2nc3ccc(-c4ccc(OC(F)(F)F)cc4)cn3c2=O)n1
34.3
Cc1cccc(C)c1OCCn1nc2ccc(-c3ccc(OC(F)(F)F)cc3)cn2c1=O
43.1
Cc1noc(Cn2nc3ccc(-c4ccc(Oc5ccc(Cl)cc5)cc4)cn3c2=O)n1
55.9

Challenge: So what does the record say about inhibition at 1 µM for O=c1n(CCOc2ncccc2C(F)(F)F)nc2ccc(-c3ccc(OC(F)(F)F)cc3)cn12 ?
Response given: 43.6

Challenge: Next: Cc1cc(C)nc(OCCn2nc3ccc(-c4ccc(OC(F)(F)F)cc4)cn3c2=O)n1
Response given: 20.8

Challenge: Next: O=c1n(Cc2noc(C3CC3)n2)nc2ccc(-c3ccc(OC(F)(F)F)cc3)cn12
Response given: 20

Challenge: Next: Cc1nc(Cn2nc3ccc(-c4ccc(Oc5ccc(Cl)cc5)cc4)cn3c2=O)no1
Response given: 68.5

Challenge: Next: O=c1n(Cc2nnc(C3CC3)o2)nc2ccc(-c3ccc(Oc4ccc(F)cc4)cc3)cn12
Response given: 45.9

Challenge: Next: Cc1nc(Cn2nc3ccc(-c4ccc(OC(F)(F)F)cc4)cn3c2=O)no1
Response given: 29.3

Challenge: Next: O=c1n(CC(O)COc2ccccc2)nc2ccc(-c3ccc(OC(F)(F)F)cc3)cn12 (stereo not drawn)
Response given: 19.3

Challenge: Next: O=c1n(CCCOc2ccccc2)nc2ccc(-c3ccc(OC(F)(F)F)cc3)cn12
Response given: 25

Challenge: Next: Cc1cccc(CCn2nc3ccc(-c4ccc(OC(F)(F)F)cc4)cn3c2=O)n1
Response given: 34.9

Challenge: Next: O=c1n(Cc2noc(C(F)F)n2)nc2ccc(-c3ccc(OC(F)(F)F)cc3)cn12
Response given: 21

Challenge: Next: O=c1n(CCn2cc(Cl)cn2)nc2ccc(-c3ccc(OC(F)(F)F)cc3)cn12
Response given: 12.2

Challenge: Next: O=c1n(CCN2CC[C@@H](Oc3ccc(F)cc3)C2)nc2ccc(-c3ccc(OC(F)(F)F)cc3)cn12
Response given: 37.3

Challenge: Next: Cc1cnc(Cn2nc3ccc(-c4ccc(Cl)cc4)cn3c2=O)o1
Response given: 31.2

Challenge: Next: O=c1[nH]nc2ccc(-c3ccc(C(F)(F)F)cc3)cn12
Response given: 19.6

Challenge: Next: Cc1noc(Cn2nc3ccc(-c4ccc([Si](C)(C)C)cc4)cn3c2=O)n1
Response given: 44.3

Challenge: Next: O=c1n(CCc2ccc(F)cc2)nc2ccc(-c3ccc(OC(F)(F)F)cc3)cn12
Response given: 27.1

Challenge: Next: Cn1ccc(Cn2nc3ccc(-c4ccc(OC(F)(F)F)cc4)cn3c2=O)n1
Response given: 10.8

Challenge: Next: O=c1n(CCOc2nccn3ccnc23)nc2ccc(-c3ccc(OC(F)(F)F)cc3)cn12
Response given: 26.3

Challenge: Next: Cc1noc(Cn2nc3ccc(-c4ccc(Oc5ccc(F)cc5)cc4)cn3c2=O)n1
Response given: 71.3

Challenge: Next: O=c1n(CCOc2nccc(Oc3ccc(Cl)cc3)n2)nc2ccc(-c3ccc(OC(F)(F)F)cc3)cn12
Response given: 11
